system.name: IFN-gamma (Homo sapiens, UniProt P01579 P01579:24-161)
Sequence (P01579 24-161, one chain of several): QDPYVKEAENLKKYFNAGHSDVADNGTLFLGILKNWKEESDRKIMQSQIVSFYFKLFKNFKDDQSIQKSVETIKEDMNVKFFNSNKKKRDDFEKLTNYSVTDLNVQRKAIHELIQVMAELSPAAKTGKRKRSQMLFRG
protocol.description: filter; full-length
condition.description: tags: Genzyme (Cambridge MA); Upstate Biotechnology for early SELEX rounds; chain copies: 2 inferred
Form field: pKd (one value per entry).
Hey, just a heads up that pKd is the negative log base 10 of the concentration in molar.

- binder: "IFN-gamma 2'F-28 (ssRNA, 2'-F all C and U) RNA: GGGAGGACGAUGCGGAGGGUUGGGAGGGGUCCUUCUUUUCGUCUGCGUGGACCGUCAGACGACUCGCCCGA"
  pKd: 7.46

Asked: Record request: pKd value, item IFN-gamma 2'F/NH2-3 (ssRNA, 2'-F all C, 2'-NH2 all U) RNA: GGGAGGACGAUGCGGUUCAGAGGGUAGGUAAGUGGGAGGAAAAAUGCCGUAUCGCCUCAGACGACUCGCCCGA
Given back: 6.97
